tested on: SK-MEL-5 melanoma; experiment: NCI-60 one-dose screen, 48 h; conditions: 10 µM
About 83,000 compounds went through this panel and 20% of them were active in at least one assay; those are over-represented in the sample as a whole. The source made the active and inactive calls. Rule for the calls: active = growth percent below 10; inactive = the rest.
Choose one outcome from this list and give only that: True (active), False (inactive)

Exercise: How was c1ccc2c(N3CCCCC3)ncnc2c1 classified in this test?
Key: False

Exercise: What classification did COc1cc(-c2ccc(NC(=O)NC3CC3)c(OC)c2)ccc1NC(=O)NC1CC1 end up with in this test?
Key: False

Exercise: What is the recorded call for this compound in the test? CCOC(=O)CNN
Key: False

Exercise: Identify the outcome logged in this assay for the compound shown: O=[N+]([O-])c1cccc2nsnc12
Key: False

Exercise: What outcome does the record of this test show for S=C1NCc2cncnc2N1 ?
Key: False

Exercise: Per the records of this test, what outcome belongs to Cc1ccc(O)c(C(=O)c2ccccc2)c1 ?
Key: False

Exercise: // param item: COCCCNC(=O)c1nnn2c1nc(N)c1cc(Cl)ccc12 ; yields the recorded call
Key: False

Exercise: Please let me know the test result on file for COC(=O)Nc1cccc(Cl)c1OC .
Key: False

Exercise: Each compound tested received a call. Report the one for CC(=O)OCC1=CC2OC(=O)C3=COC(OC4OC(CO)C(O)C(O)C4O)C1C32 (configuration not stated) .
Key: False

Exercise: Called result for O=C(O)/C=C/C(=O)NCc1ccccc1
Key: False

Exercise: GET /call?item= Cc1ccccc1C1N=C2Oc3ccccc3C=C2C(=O)N1 (configuration not stated) returns the recorded outcome of this test.
Key: False

Exercise: Field: outcome | Entry: Cc1cc(C(O)(c2ccc(Nc3ccccc3)cc2)c2ccc(Nc3ccc(S(=O)(=O)O)cc3)cc2)ccc1N (configuration not stated)
Key: True

Exercise: Dear colleague, could you share the recorded outcome for COc1cc(/C=N\Nc2ccccc2)ccc1OC(=O)c1ccccc1 when you have a moment?
Key: False

Exercise: Kindly provide the recorded test outcome for the following compound: Cc1ccc(/C=C2\SC(=S)N(c3ccc(F)cc3)C2=O)o1
Key: False

Exercise: Outcome? Cc1cccc(CO)c1
Key: False

Exercise: What classification did O=C(Cc1nc2ccc([N+](=O)[O-])cc2nc1CC(=O)c1cccnc1)c1cccnc1 end up with in this test?
Key: False

Exercise: For O=C(CS)Nc1ccc2ccccc2c1 , which call appears in the assay record?
Key: False

Exercise: // return assay outcome for Cc1cc2nc(CC(=O)c3cccc([N+](=O)[O-])c3)c(=O)[nH]c2cc1C
Key: False

Exercise: Hi team, can someone confirm the assay call for Cc1cc(OCCO)cc(C)c1Cl ?
Key: False

Exercise: Tell me the recorded outcome of this test for CCCCCCCCOC(=O)c1ccccn1 .
Key: False

Exercise: Query: recorded result category for NC(=O)NC(=O)c1ccc(Cl)cc1 in this test
Key: False

Exercise: Short answer needed: outcome of this test for O=C(O)COCC(=O)O ?
Key: False

Exercise: Record lookup: outcome of this test for COCCOC(=O)c1ccc(C(C)C)cc1 ?
Key: False

Exercise: Returns: the outcome recorded for CN(C)CCN(C)CC(C)(C)C(=O)/C=C/c1ccc(Cl)cc1 in this assay.
Key: True

Exercise: Lab log entry: Cc1cc(C)c(CC(=O)O)c(C)c1 — outcome as called in the assay?
Key: False

Exercise: # lookup: test call for Clc1ccc(-c2nnc(-c3cccc4ccccc34)o2)cc1
Key: False

Exercise: Each compound tested received a call. Report the one for CC(=O)OC(C(=O)O)c1ccccc1 (configuration not stated) .
Key: False

Origin of values: PubChem BioAssay (NCI)
